Give measured Mean fraction of dose excreted to urine for each item. Keep answers brief.
details: mouse, in vivo
Respond numerically; units are % and should not be typed.

I'd like to know its Mean fraction of dose excreted to urine. The compound in question is Cn1c(=O)[nH]c2ncn(C)c2c1=O [Paraxanthine, 1,7-Dimethylxanthine]
2

For the compound shown here, Cc1cccc(Nc2ccncc2S(=O)(=O)NC(=O)NC(C)C)c1 [Torsemide, torsemide] , give the reported Mean fraction of dose excreted to urine.
4

For the compound Cn1c(=O)c2c(ncn2C)n(C)c1=O [Caffeine, caffeine] , what Mean fraction of dose excreted to urine is on record?
1

====

assay: Drug cocktail i.v. in mice: 24 h urine, fraction of dose excreted; conditions: mice, after drug cocktail administration
Measurement name: Mean fraction of dose excreted to urine (%)
Express your answer in %, writing the number without its unit.

Param item = CC(C)NC(=O)NS(=O)(=O)c1cnccc1Nc1cccc(CO)c1 [OH-torsemide, hydroxy torsemide] ; retrieve measured Mean fraction of dose excreted to urine.
11

Mean fraction of dose excreted to urine lookup needed for COc1ccc2c3c1O[C@H]1[C@@H](O[C@@H]4O[C@H](C(=O)O)[C@@H](O)[C@H](O)[C@H]4O)C=C[C@H]4[C@@H](C2)N(C)CC[C@@]341 [C6G, codeine-6-glucuronide] , thanks.
1

What Mean fraction of dose excreted to urine value was documented for this molecule, CN1CC[C@]23c4c5ccc(O)c4O[C@H]2[C@@H](O)C=C[C@H]3[C@H]1C5 [Morphine, morphine] ?
1

State the recorded Mean fraction of dose excreted to urine for this entry: COc1ccc2c3c1O[C@H]1[C@@H](O)C=C[C@H]4[C@@H](C2)NCC[C@@]341 [Norcodeine, norcodeine]
3

I'd like to know its Mean fraction of dose excreted to urine. The molecule in question is COc1ccc2c3c1O[C@H]1[C@@H](O)C=C[C@H]4[C@@H](C2)N(C)CC[C@@]341 [Codeine, codeine]
3
